B1: HDV Ribozyme (parent)
chain: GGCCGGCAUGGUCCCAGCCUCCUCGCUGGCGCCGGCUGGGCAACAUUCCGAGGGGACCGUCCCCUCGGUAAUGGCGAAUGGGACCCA

Variants of: B1
Assay: self-cleavage, relative activity (ratio to wild type); higher = more cleavage; co-transcriptional
// values below are reported self-cleavage
Please state the value as a number alone, without comment.

# annotated cases, reported self-cleavage shown
# MUTATION_CODE, self-cleavage
records = [
    ("U23C C32U", 0.587),
    ("G5U U65C", 0.723),
    ("A51C G53C", 0.196),
    ("G25C G73A", 0.116),
    ("A43C G68U", 0.264),
    ("C4U C13G", 0.0449),
    ("C63A A71C", 0.525),
    ("C7G G29C", 0.0615),
]

// self-cleavage lookup, key: U46G C49U
0.8

Quick check: self-cleavage of A78U A87U ?
0.243

Return reported self-cleavage; argument: G5U G59U
0.633

Sample C4G G29U — what was its self-cleavage?
0.0292

Look at this variant and give its reported self-cleavage. C49G A77C
0.119

Which self-cleavage value is on record for G67C U72A ?
0.682

I have this variant here, A56U A70G , and I need its recorded self-cleavage.
1.07

Quick check: self-cleavage of G2C C62A ?
0.0462

Which self-cleavage value is on record for C36G U69C ?
0.155

Which measured self-cleavage value corresponds to C26U C75G ?
0.287

Field request: self-cleavage | item: G34U G50U
0.191

Requested read-out: self-cleavage. Entry: C21A U72A
0

Value lookup for self-cleavage; key = G40U C63U
0.866

// self-cleavage lookup, key: A8C C57U
0.895

Tell me the measured self-cleavage of C3U G53U , please.
0.779

GET /values?readout=self-cleavage&item= G10U G81U
0.0791

Please look up its self-cleavage: G59C U65A
1.17

Look at this variant and give its reported self-cleavage. G11C A43G
0.0536

Look up self-cleavage: U23C C62A
0.762

Field request: self-cleavage | item: U65G U72G
0.748

Suppose we examine the variant C32G A51C ; what self-cleavage value has been reported?
0.0489
